Each item that follows carries a reported max response.
- System: NIH3T3
- assay.protocol: Cytotoxic Profiling of Annotated Libraries Using Quantitative High-Throughput Screening (AID 1296008); further: on the % scale 0 is the no-effect control and ±100 the full control effect; nearly all actives have a fitted effect of over 60% in size
- condition.label: Five cell lines viability, CellTiter-Glo ATP luminescence, 48-72 h; hits give low values
Inconclusive results are not listed. Active and inactive are the calls of the source. The call rests on the fitted dose curve; in most records, active means well fitted inhibition curve with a large enough effect; inconclusive means small, poorly fitted or top-dose-only effect; inactive means flat fitted curve, though single readings scatter.
recorded.metric: max response

>  <compound>
NCC(=O)Nc1ccc(-n2nc(C(F)(F)F)cc2-c2ccc3c(ccc4ccccc43)c2)cc1

>  <test.result>
-0.49% (inactive)

$$$$
>  <compound>
Nc1nc(-c2nn(Cc3ccccc3F)c3ncccc23)nc(N)c1N1CCOCC1

>  <test.result>
-10.6% (inactive)

$$$$
>  <compound>
CCCCCCCCCC(=O)N[C@@H](Cc1c[nH]c2ccccc12)C(=O)N[C@H](CC(N)=O)C(=O)N[C@@H](CC(=O)O)C(=O)N[C@@H]1C(=O)NCC(=O)N[C@@H](CCCN)C(=O)N[C@@H](CC(=O)O)C(=O)N[C@H](C)C(=O)N[C@@H](CC(=O)O)C(=O)NCC(=O)N[C@H](CO)C(=O)N[C@@H]([C@@H](C)CC(=O)O)C(=O)N[C@@H](CC(=O)c2ccccc2N)C(=O)O[C@@H]1C

>  <test.result>
-13.2% (inactive)

$$$$
>  <compound>
CC=CC1=C(C(=O)O)N2C(=O)[C@H](NC(=O)[C@H](N)c3ccc(O)cc3)[C@@H]2SC1

>  <test.result>
1.07% (inactive)

$$$$
>  <compound>
CCCCCN(CCC12CC3CC(CC(C3)C1)C2)C(=O)NCCCc1ccncc1

>  <test.result>
-9.34% (inactive)

$$$$
>  <compound>
O=C1CCC[C@@H]2[C@H]3CCC[N+]4([O-])CCC[C@@H](CN12)[C@@H]34 (stereo partly specified)

>  <test.result>
-2.91% (inactive)

$$$$
>  <compound>
COc1ccc(CC2SC(=O)NC2=O)cc1C(=O)NCc1ccc(C(F)(F)F)cc1 (stereo unspecified)

>  <test.result>
2.55% (inactive)

$$$$
>  <compound>
Cn1c2cc(S(C)=O)sc2c2cnn(Cc3cccc(N)c3)c(=O)c21 (stereo unspecified)

>  <test.result>
-11.6% (inactive)

$$$$
>  <compound>
CN(C)CC(C)(C)CNc1nn2c(-c3ccccc3)nnc2cc1C1CCC1

>  <test.result>
-0.774% (inactive)

$$$$
>  <compound>
COC(=O)C[C@](O)(CCCC(C)(C)O)C(=O)O[C@@H]1C(OC)=C[C@]23CCCN2CCc2cc4c(cc2[C@H]13)OCO4

>  <test.result>
2.2% (inactive)

$$$$
>  <compound>
OCc1ccc(-c2ccc(-c3ccc(CO)s3)o2)s1

>  <test.result>
-23.8% (inactive)

$$$$
>  <compound>
O=C(O)[C@H](Cc1c[nH]c2ccccc12)N1C(=O)c2ccccc2C1=O

>  <test.result>
4.64% (inactive)

$$$$
>  <compound>
COc1cccc(Nc2c(C(N)=O)cnc3c(C)cc(S(=O)(=O)c4cccc(C(=O)N(C)C)c4)cc23)c1

>  <test.result>
-0.878% (inactive)

$$$$
>  <compound>
O=C(NCCS(=O)(=O)c1ccc(C(F)(F)F)cn1)c1ccc(Cl)cc1

>  <test.result>
1.91% (inactive)

$$$$
>  <compound>
O=C(Nc1nc2cccc(-c3ccc(CN4CCS(=O)(=O)CC4)cc3)n2n1)C1CC1

>  <test.result>
-23.2% (inactive)

$$$$
>  <compound>
CC(C)(O)CCc1ccc(OCc2cc(-c3cccc(OC(F)F)c3)c3ncccc3c2)cc1

>  <test.result>
4.85% (inactive)

$$$$
>  <compound>
N#Cc1c(O)c2c(-c3ccc(-c4ccccc4O)cc3)csc2[nH]c1=O

>  <test.result>
-1.37% (inactive)

$$$$
>  <compound>
Cc1ccc2nc(NC(=O)CSc3nc4c(c(=O)n3-c3ccccc3)SCC4)sc2c1

>  <test.result>
-19.8% (inactive)

$$$$
>  <compound>
CC1(C)O[C@@H]2C[C@@H]3[C@H]4C[C@@H](F)C5=CC(=O)C=C[C@]5(C)[C@@]4(F)[C@@H](O)C[C@]3(C)[C@]2(C(=O)CO)O1

>  <test.result>
-12.4% (inactive)

$$$$
>  <compound>
COc1ccc(C=Cc2cc(OC)c(OC)c(OC)c2)cc1O

>  <test.result>
-49.1% (inactive)

$$$$
>  <compound>
CC(C)(C)c1cc(NC(=O)Nc2ccc(-c3cn4c(n3)sc3cc(OCCN5CCOCC5)ccc34)cc2)no1

>  <test.result>
-25.4% (inactive)

$$$$
>  <compound>
CCCn1c(=O)c2[nH]c(-c3cnn(Cc4cccc(C(F)(F)F)c4)c3)nc2n(CC)c1=O

>  <test.result>
1.05% (inactive)

$$$$
>  <compound>
CC[C@H](CO)Nc1nc(NCc2ccccc2)c2ncn(C(C)C)c2n1

>  <test.result>
-26.8% (inactive)

$$$$
>  <compound>
O=C(CCCCCCC(=O)Nc1ccc([C@H]2O[C@@H](CSc3nc(-c4ccccc4)c(-c4ccccc4)o3)C[C@@H](c3ccc(CO)cc3)O2)cc1)NO

>  <test.result>
-17.5% (inactive)

$$$$
>  <compound>
Nc1nc(NCCNc2ncc(-n3ccnc3)c(-c3ccc(Cl)cc3Cl)n2)ccc1[N+](=O)[O-]

>  <test.result>
4.08% (inactive)

$$$$
>  <compound>
COc1cc2ncn(-c3cc(OCc4ccccc4C(F)(F)F)c(C(N)=O)s3)c2cc1OC

>  <test.result>
-29.2% (inactive)

$$$$
>  <compound>
C[C@@H]1COC(Nc2ccc3ncnc(Nc4ccc(OCc5nccs5)c(Cl)c4)c3c2)=N1

>  <test.result>
-19.2% (inactive)

$$$$
>  <compound>
COc1ccc(CC2c3cc(OC)c(OC)cc3CC[N+]2(C)CCC(=O)OCCCCCOC(=O)CC[N+]2(C)CCc3cc(OC)c(OC)cc3C2Cc2ccc(OC)c(OC)c2)cc1OC (stereo unspecified)

>  <test.result>
-6.84% (inactive)

$$$$
>  <compound>
CC(=O)SC[C@@H](C)C(=O)N1CCC[C@H]1C(=O)N[C@@H](Cc1ccccc1)C(=O)O

>  <test.result>
0.0761% (inactive)

$$$$
>  <compound>
NC1(Cc2ccc(Cl)cc2)CCN(c2ncnc3[nH]ccc23)CC1

>  <test.result>
0.262% (inactive)

$$$$
>  <compound>
CC(=O)c1c(C)c2cnc(Nc3ccc(N4CCNCC4)cn3)nc2n(C2CCCC2)c1=O

>  <test.result>
3.53% (inactive)

$$$$
